- PROCEDURE_DETAILS: Cytotoxicity test, MTT/formazan assay
- Format: cell-based, monkey
- CONDITION_INFO: monkey, LLC-MK2 monkey kidney epithelial cells; LLC-MK2 cells, 72 h, MTT/formazan
Kindly supply the reported CC50 at 72 h values for the records listed here.
Give bare numbers, in µg/mL.

Guide cases for CC50 at 72 h, answers given:
- MOLECULE: "OC(c1ccc(F)cc1)C1CCN(Cc2ccc(F)cc2)CC1 (stereo not shown)"
  RESULT_VALUE: 375
- MOLECULE: "O=C(c1ccc(F)cc1)C1CCN(Cc2ccc(Cl)c(Cl)c2)CC1"
  RESULT_VALUE: 188
- MOLECULE: "OC(c1ccc(F)cc1)C1CCN(Cc2ccc(Cl)c(Cl)c2)CC1 (stereo not shown)"
  RESULT_VALUE: 93.8

--- query ---
CC50 at 72 h for `O=C(c1ccc(F)cc1)C1CCN(Cc2ccc(F)cc2)CC1` ?
188
